Target: T1, biotinylated GITR (human, UniProt Q9Y5U5 26-161, limits assumed, biotinylated (sites not given))
T1 construct: also called GITR-bio; Biotin-GITR
T1 sequence: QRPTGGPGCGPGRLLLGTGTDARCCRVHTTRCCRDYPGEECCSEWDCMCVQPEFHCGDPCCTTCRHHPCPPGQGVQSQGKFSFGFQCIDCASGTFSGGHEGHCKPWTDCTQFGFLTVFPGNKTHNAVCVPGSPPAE
Test: BLI (Octet), biotin-GITR on streptavidin tips, antibody supernatant

| BINDER | kon [M⁻¹ s⁻¹] |
| --- | --- |
| germline variant antibody 80 (H1917D07 / K1917D07) (antibody, V domains shown, IGHG1/IGKC expression vectors; measured from CHO culture supernatant; also called Antibody ID 80) VH: QVQLVQSGTEVKKPGASVKVSCKASGYTFTEYAMHWVRQAPGQGMEWMGLIRTFSGDVSYNQKFRGRVTMTVDTSISTAYMELSRLRSDDTAVYYCAKSGTVRGFAYWGQGTLVTVSS VL: DIVMTQSPDSLAVSLGERATINCKSSQSLLNSSNQKNYLTWYQQKPGQPPKLLIYWASTRESGVPDRFTGSGSGTDFTLTISSLQAEDVAVYYCQNDYSFPYTFGQGTKLEIK | 652000 |
| germline variant antibody 5 (H1916A06 / K1916A06) (antibody, V domains shown, IGHG1/IGKC expression vectors; measured from CHO culture supernatant; also called Antibody ID 5) VH: QVQLVQSGAEVKKPGASVKVSCKGSGYTFTEYAMHWVRQAPGQGLEWMGLIRTYSGGVTYNQKFRGRVTMTVDTSISTAYMELSRLRSDDTAVYYCAKSGTVRGFAYWGQGTLVTVSS VL: DIVMTQSPDSLAAPGERATINCKSSQSLLNSSNQKNYLTWYHQKPGQPPKLLIYWASTRESGVPDRFTGSGSGTDFTLTISSVQAEDVAVYYCQNEYSFPYTFGQGTKLEIK | 591000 |
| germline variant antibody 16 (H1916B06 / K1916B06) (antibody, V domains shown, IGHG1/IGKC expression vectors; measured from CHO culture supernatant; also called Antibody ID 16) VH: QVQLVQSGTEVKKPGASVKVSCKASGYTFTGYAMYWVRQAPGQGLEWIGLIRTFSGGVTYNQKFRERVTMTVDKSISTAYMELSRLRSDDTAVYYCAKSGTVRGFAYWGQGTLVTVSS VL: DIVMTQSPDSLAVSLGERATINCKSSQSLLNSGNQKNYLTWYHQKPGQPPKLLIYWASTRESGVPDRFTGSGSGTDFTLTISSVQAEDVAVYHCQNDYSYPYTFGQGTKLEIK | 356000 |
